measured-on: LlpABW (Pseudomonas putida)
Construct: gene llpA; full-length, N-terminal His6 tag (pET28a, pCMPG6056), E. coli BL21(DE3); no signal peptide; N-domain Arg4-Pro135, C-domain Ala136-Gln253, hairpin Pro254-His275
assay-remarks: ITC
Assay type: binding
assay-conditions: bis-TRIS propane 20 mM, 200 mM NaCl, pH 7.0, 25°C; single-site fit n = 1; site III^C
pKd: −log10 of the molar value.
Where pKd equals or exceeds 2, the correct label is condition met; where it does not, the label is condition not met.

compound: CC(=O)N[C@H]1[C@H](O[C@@H]2[C@@H](OC[C@H]3OC(O)[C@@H](O)[C@@H](O[C@H]4O[C@H](CO)[C@@H](O)[C@H](O)[C@@H]4O[C@@H]4O[C@H](CO)[C@@H](O)[C@H](O)[C@H]4NC(C)=O)[C@@H]3O)O[C@H](CO)[C@@H](O)[C@@H]2O)O[C@H](CO)[C@@H](O)[C@@H]1O (some centres unmarked)
class: condition met

compound: OC[C@H]1O[C@H](O[C@H]2[C@H](O)[C@@H](CO)OC(O)[C@H]2O)[C@@H](O)[C@@H](O)[C@@H]1O (some centres unmarked) [Manα(1–3)Man]
class: condition not met

compound: OC[C@H]1O[C@H](OC[C@H]2OC(O)[C@@H](O)[C@@H](O)[C@@H]2O)[C@@H](O)[C@@H](O)[C@@H]1O (some centres unmarked) [Manα(1–6)Man]
class: condition not met

Q: Exam item: decide whether the reported pKd for OC[C@H]1O[C@H](O[C@@H]2C(O)O[C@H](CO)[C@@H](O)[C@@H]2O)[C@@H](O)[C@@H](O)[C@@H]1O (some centres unmarked) [Manα(1–2)Man] is at least 2.
Ans: condition not met

---

measured-on: LlpABW (Pseudomonas putida, UniProt Q8GEJ9, V208Y)
Construct: gene llpA; full-length, N-terminal His6 tag (pET28a, pCMPG6056), E. coli BL21(DE3); no signal peptide; N-domain Arg4-Pro135, C-domain Ala136-Gln253, hairpin Pro254-His275
Sequence (Q8GEJ9 1-276, stated change not applied): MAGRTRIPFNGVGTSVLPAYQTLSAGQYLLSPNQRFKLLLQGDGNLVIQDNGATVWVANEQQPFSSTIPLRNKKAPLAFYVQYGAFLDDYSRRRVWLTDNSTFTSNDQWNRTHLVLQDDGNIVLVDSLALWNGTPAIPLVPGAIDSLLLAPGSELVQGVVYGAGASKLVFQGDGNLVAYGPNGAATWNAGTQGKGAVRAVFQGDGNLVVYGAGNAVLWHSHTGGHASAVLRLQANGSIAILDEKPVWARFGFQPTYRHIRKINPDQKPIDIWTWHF
assay-remarks: ITC
Type: binding
assay-conditions: read-out: Kd
recorded-endpoint: pKd
// pKd is dimensionless: -log10 of concentration (M)

Q: Look up pKd for this compound: CO[C@H]1O[C@H](CO)[C@@H](O)[C@H](O)[C@@H]1O [methyl-α-D-mannopyranoside]
Ans: 1.23

---

measured-on: LlpABW (Pseudomonas putida, UniProt Q8GEJ9, V208Y)
Construct: gene llpA; full-length, N-terminal His6 tag (pET28a, pCMPG6056), E. coli BL21(DE3); no signal peptide; N-domain Arg4-Pro135, C-domain Ala136-Gln253, hairpin Pro254-His275
assay-remarks: ITC
Type: binding
assay-conditions: bis-TRIS propane 20 mM, 200 mM NaCl, pH 7.0, 25°C; single-site fit n = 1; site III^C
recorded-endpoint: Kd (mM)
State just the number; it will be interpreted in mM.

Q: Returns the measured Kd for the input molecule. Input: OC[C@H]1O[C@H](O[C@H]2[C@H](O)[C@@H](CO)OC(O)[C@H]2O)[C@@H](O)[C@@H](O)[C@@H]1O (stereo partly shown)
Ans: 23

---

measured-on: LlpABW (Pseudomonas putida, UniProt Q8GEJ9)
Construct: gene llpA; full-length, N-terminal His6 tag (pET28a, pCMPG6056), E. coli BL21(DE3); no signal peptide; N-domain Arg4-Pro135, C-domain Ala136-Gln253, hairpin Pro254-His275
Sequence (Q8GEJ9 1-276): as the sequence (Q8GEJ9 1-276, stated change not applied) above
assay-remarks: ITC
Format: binding
assay-conditions: read-out: Kd
recorded-endpoint: Kd (mM)
Just the number please, in mM, no unit attached.

Q: Which Kd reading was recorded for the compound CO[C@H]1O[C@H](CO)[C@@H](O)[C@H](O)[C@@H]1O [methyl-α-D-mannopyranoside] ?
Ans: 45.9
